Biological target: steroid sulfatase (STS) (Homo sapiens)
Assay: STS inhibition in intact MCF-7 breast cancer cells
Type: cell-based
Parameters: endogenous in cells; host or cells: MCF-7 breast cancer cells
Details: MCF7, read-out: % Inhibition of STS Activity in Intact MCF-7 Breast Cancer Cells at 0.01 μM
recorded-endpoint: inhibition at 0.01 µM (%)
The reply should contain only the number, in %.

Completed entries (count: 8):
1. NS(=O)(=O)Oc1ccc2c(C3CCCCC3)cc(=O)oc2c1 [compound 26, 4-Cyclohexylcoumarin-7-O-sulfamate] :: 37
2. CCCCCCCCCCCCc1cc(=O)oc2cc(OS(N)(=O)=O)ccc12 [compound 17, 4-Dodecylcoumarin-7-O-sulfamate] :: 22
3. CCCCCCCCCc1cc(=O)oc2cc(OS(N)(=O)=O)ccc12 [compound 14, 4-Nonylcoumarin-7-O-sulfamate] :: 90
4. NS(=O)(=O)Oc1ccc2c(CCc3ccccc3)cc(=O)oc2c1 [compound 24, 4-(2-Phenylethyl)coumarin-7-O-sulfamate] :: 39
5. NS(=O)(=O)Oc1ccc2c(Cc3ccccc3)cc(=O)oc2c1 [compound 23, 4-Benzylcoumarin-7-O-sulfamate] :: 8
6. NS(=O)(=O)Oc1ccc2c(CCl)cc(=O)oc2c1 [compound 21, 4-Chloromethylcoumarin-7-O-sulfamate] :: 6
7. CCCCCCCCCCc1cc(=O)oc2cc(OS(N)(=O)=O)ccc12 [compound 15, 4-Decylcoumarin-7-O-sulfamate] :: 86
8. CCCCCCCCCCc1c(C)c2ccc(OS(N)(=O)=O)cc2oc1=O [compound 33, 3-Decyl-4-methylcoumarin-7-O-sulfamate] :: 80

Please find the next compound below.
# assay system steroid sulfatase (STS) (Homo sapiens): give inhibition at 0.01 µM of Cc1c(CCc2ccccc2)c(=O)oc2cc(OS(N)(=O)=O)ccc12 [compound 42]
93

###

Molecular target: steroid sulfatase (STS) (Homo sapiens)
Assay: STS inhibition in placental microsomes
Type: biochemical
Design: a placental microsomal preparation from a sulfatase-positive human placenta from a normal term pregnancy; from tissue; host or cells: human placenta (microsomal preparation)
Conditions: 20 μM E1S
recorded-endpoint: IC50 (nM)
The reply should contain only the number, in nM.

1. NS(=O)(=O)Oc1ccc2c(-c3ccccc3)cc(=O)oc2c1 [compound 22, 4-Phenylcoumarin-7-O-sulfamate] :: 200
2. CCCCCc1cc(=O)oc2cc(OS(N)(=O)=O)ccc12 [compound 10, 4-Pentylcoumarin-7-O-sulfamate] :: 40
3. CCCCCCCCCCCc1cc(=O)oc2cc(OS(N)(=O)=O)ccc12 [compound 16, 4-Undecylcoumarin-7-O-sulfamate] :: 73
4. CCCCCc1c(C)c2ccc(OS(N)(=O)=O)cc2oc1=O [compound 28, 4-Methyl-3-pentylcoumarin-7-O-sulfamate] :: 12

Please find the next molecule below.
Return IC50 for the following molecule: CCCCCCCCCCc1cc(=O)oc2cc(OS(N)(=O)=O)ccc12 [compound 15, 4-Decylcoumarin-7-O-sulfamate]
60

###

Molecular target: steroid sulfatase (STS) (Homo sapiens, UniProt P08842)
Sequence (P08842 22-583): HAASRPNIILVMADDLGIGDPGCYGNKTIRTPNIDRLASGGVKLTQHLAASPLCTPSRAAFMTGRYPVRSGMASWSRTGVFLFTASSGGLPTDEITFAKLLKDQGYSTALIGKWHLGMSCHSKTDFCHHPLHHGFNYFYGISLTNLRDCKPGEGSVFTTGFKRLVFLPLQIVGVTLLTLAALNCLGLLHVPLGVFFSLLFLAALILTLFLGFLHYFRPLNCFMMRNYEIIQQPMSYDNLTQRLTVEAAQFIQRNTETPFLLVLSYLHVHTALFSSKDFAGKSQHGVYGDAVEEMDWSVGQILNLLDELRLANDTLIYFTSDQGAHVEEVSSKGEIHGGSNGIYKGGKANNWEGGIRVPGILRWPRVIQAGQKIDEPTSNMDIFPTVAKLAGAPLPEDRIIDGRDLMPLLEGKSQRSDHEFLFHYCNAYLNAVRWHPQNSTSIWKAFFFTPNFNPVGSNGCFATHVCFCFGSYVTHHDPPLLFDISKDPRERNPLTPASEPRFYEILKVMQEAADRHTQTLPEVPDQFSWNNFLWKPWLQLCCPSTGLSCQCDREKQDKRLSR
Assay: STS inhibition in placental microsomes
Assay type: biochemical
Set-up: a placental microsomal preparation from a sulfatase-positive human placenta from a normal term pregnancy; from tissue; host or cells: human placenta (microsomal preparation)
Conditions: 1 μM inhibitor; 20 μM E1S
List of inhibition at 1 µM values.
The reply should contain only the number, in %.

Completed entries (count: 2):
1. CCCCCCc1cc(=O)oc2cc(OS(N)(=O)=O)ccc12 [compound 11, 4-Hexylcoumarin-7-O-sulfamate] :: 97
2. NS(=O)(=O)Oc1ccc2c(C3CCCCC3)cc(=O)oc2c1 [compound 26, 4-Cyclohexylcoumarin-7-O-sulfamate] :: 94

Please find the next compound below.
Return inhibition at 1 µM for the following compound: CCCCCCCCc1cc(=O)oc2cc(OS(N)(=O)=O)ccc12 [compound 13, 4-Octylcoumarin-7-O-sulfamate]
97
